TARGET_DESC: T1, CD3 epsilon homodimer protein (UniProt P07766 23-126)
T1 construct: also called CD3 (CD3 epsilon)
ASSAY_TEXT: SPR, antibody over immobilised CD3e homodimer;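 note: SPR at 25 °C with CD3 epsilon homodimer amine-coupled to a CM4 sensor chip and antibody flowed over as analyte in HBS-EP+ running buffer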
Recorded KD ratio to GLS3000 for the following binders
PROPERTY_MEASURED: KD ratio to GLS3000

binder="CE115HA000/GLS3000 Q90S (antibody, IgG1, name in Kabat numbering, V domains shown, one-arm IgG1) VH: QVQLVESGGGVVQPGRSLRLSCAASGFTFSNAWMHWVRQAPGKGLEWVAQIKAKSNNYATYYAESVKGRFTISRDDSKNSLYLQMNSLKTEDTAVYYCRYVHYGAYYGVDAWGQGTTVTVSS VL: DIVMTQSPLSLPVTPGEPASISCRSSQSLVHSNRNTYLHWYQQKPGQAPRLLIYKVSNRFSGVPDRFSGSGSGTDFTLKISRVEAEDVGVYYCGSGTQVPYTFGQGTKLEIK" quantitative_readout=0.96
binder="CE115HA000/GLS3000 G89A (antibody, IgG1, name in Kabat numbering, V domains shown, one-arm IgG1) VH: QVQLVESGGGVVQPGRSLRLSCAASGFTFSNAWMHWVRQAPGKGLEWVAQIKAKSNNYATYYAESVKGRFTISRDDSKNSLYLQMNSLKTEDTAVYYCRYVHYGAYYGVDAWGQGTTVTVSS VL: DIVMTQSPLSLPVTPGEPASISCRSSQSLVHSNRNTYLHWYQQKPGQAPRLLIYKVSNRFSGVPDRFSGSGSGTDFTLKISRVEAEDVGVYYCAQGTQVPYTFGQGTKLEIK" quantitative_readout=1.1
binder="CE115HA000/GLS3000 T92Y (antibody, IgG1, name in Kabat numbering, V domains shown, one-arm IgG1) VH: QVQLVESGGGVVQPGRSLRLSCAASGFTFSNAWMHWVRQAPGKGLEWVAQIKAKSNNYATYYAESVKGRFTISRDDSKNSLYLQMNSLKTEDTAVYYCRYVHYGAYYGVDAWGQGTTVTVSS VL: DIVMTQSPLSLPVTPGEPASISCRSSQSLVHSNRNTYLHWYQQKPGQAPRLLIYKVSNRFSGVPDRFSGSGSGTDFTLKISRVEAEDVGVYYCGQGYQVPYTFGQGTKLEIK" quantitative_readout=2.55
binder="CE115HA000/GLS3000 T31D (antibody, IgG1, name in Kabat numbering, V domains shown, one-arm IgG1) VH: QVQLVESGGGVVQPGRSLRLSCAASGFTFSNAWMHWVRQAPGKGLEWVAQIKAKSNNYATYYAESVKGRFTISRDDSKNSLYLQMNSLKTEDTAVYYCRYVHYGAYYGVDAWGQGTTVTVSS VL: DIVMTQSPLSLPVTPGEPASISCRSSQSLVHSNRNDYLHWYQQKPGQAPRLLIYKVSNRFSGVPDRFSGSGSGTDFTLKISRVEAEDVGVYYCGQGTQVPYTFGQGTKLEIK" quantitative_readout=30.9
binder="CE115HA000/GLS3000 N53M (antibody, IgG1, name in Kabat numbering, V domains shown, one-arm IgG1) VH: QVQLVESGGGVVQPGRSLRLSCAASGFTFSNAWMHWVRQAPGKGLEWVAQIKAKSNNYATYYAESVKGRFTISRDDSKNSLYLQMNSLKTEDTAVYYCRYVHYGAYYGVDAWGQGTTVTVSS VL: DIVMTQSPLSLPVTPGEPASISCRSSQSLVHSNRNTYLHWYQQKPGQAPRLLIYKVSMRFSGVPDRFSGSGSGTDFTLKISRVEAEDVGVYYCGQGTQVPYTFGQGTKLEIK" quantitative_readout=1.21
binder="CE115HA000/GLS3000 F55N (antibody, IgG1, name in Kabat numbering, V domains shown, one-arm IgG1) VH: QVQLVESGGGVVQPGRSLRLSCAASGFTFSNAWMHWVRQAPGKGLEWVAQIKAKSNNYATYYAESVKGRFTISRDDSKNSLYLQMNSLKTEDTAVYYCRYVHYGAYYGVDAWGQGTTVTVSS VL: DIVMTQSPLSLPVTPGEPASISCRSSQSLVHSNRNTYLHWYQQKPGQAPRLLIYKVSNRNSGVPDRFSGSGSGTDFTLKISRVEAEDVGVYYCGQGTQVPYTFGQGTKLEIK" quantitative_readout=0.91
binder="CE115HA000/GLS3000 S25I (antibody, IgG1, name in Kabat numbering, V domains shown, one-arm IgG1) VH: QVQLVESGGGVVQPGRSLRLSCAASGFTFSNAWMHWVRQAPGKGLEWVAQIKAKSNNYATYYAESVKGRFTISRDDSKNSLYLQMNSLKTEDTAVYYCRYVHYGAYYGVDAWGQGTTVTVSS VL: DIVMTQSPLSLPVTPGEPASISCRISQSLVHSNRNTYLHWYQQKPGQAPRLLIYKVSNRFSGVPDRFSGSGSGTDFTLKISRVEAEDVGVYYCGQGTQVPYTFGQGTKLEIK" quantitative_readout=0.67
binder="CE115HA000/GLS3000 R54W (antibody, IgG1, name in Kabat numbering, V domains shown, one-arm IgG1) VH: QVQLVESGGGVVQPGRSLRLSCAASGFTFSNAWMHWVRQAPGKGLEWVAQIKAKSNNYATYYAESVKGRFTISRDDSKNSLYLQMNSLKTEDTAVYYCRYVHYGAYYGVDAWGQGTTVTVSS VL: DIVMTQSPLSLPVTPGEPASISCRSSQSLVHSNRNTYLHWYQQKPGQAPRLLIYKVSNWFSGVPDRFSGSGSGTDFTLKISRVEAEDVGVYYCGQGTQVPYTFGQGTKLEIK" quantitative_readout=0.65
binder="CE115HA000/GLS3000 S25E (antibody, IgG1, name in Kabat numbering, V domains shown, one-arm IgG1) VH: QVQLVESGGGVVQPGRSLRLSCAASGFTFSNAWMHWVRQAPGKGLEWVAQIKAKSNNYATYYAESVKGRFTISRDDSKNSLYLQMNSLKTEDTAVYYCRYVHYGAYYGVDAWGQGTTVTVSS VL: DIVMTQSPLSLPVTPGEPASISCRESQSLVHSNRNTYLHWYQQKPGQAPRLLIYKVSNRFSGVPDRFSGSGSGTDFTLKISRVEAEDVGVYYCGQGTQVPYTFGQGTKLEIK" quantitative_readout=8.54
binder="CE115HA000/GLS3000 N30E (antibody, IgG1, name in Kabat numbering, V domains shown, one-arm IgG1) VH: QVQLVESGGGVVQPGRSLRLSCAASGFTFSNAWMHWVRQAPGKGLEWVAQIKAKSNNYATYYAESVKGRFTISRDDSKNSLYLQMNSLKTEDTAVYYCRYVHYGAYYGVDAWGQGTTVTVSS VL: DIVMTQSPLSLPVTPGEPASISCRSSQSLVHSNRETYLHWYQQKPGQAPRLLIYKVSNRFSGVPDRFSGSGSGTDFTLKISRVEAEDVGVYYCGQGTQVPYTFGQGTKLEIK" quantitative_readout=2.83
